- Target Of Assay: UniProt Q8IW41
- Sequence (Q8IW41 whole entry, looked up): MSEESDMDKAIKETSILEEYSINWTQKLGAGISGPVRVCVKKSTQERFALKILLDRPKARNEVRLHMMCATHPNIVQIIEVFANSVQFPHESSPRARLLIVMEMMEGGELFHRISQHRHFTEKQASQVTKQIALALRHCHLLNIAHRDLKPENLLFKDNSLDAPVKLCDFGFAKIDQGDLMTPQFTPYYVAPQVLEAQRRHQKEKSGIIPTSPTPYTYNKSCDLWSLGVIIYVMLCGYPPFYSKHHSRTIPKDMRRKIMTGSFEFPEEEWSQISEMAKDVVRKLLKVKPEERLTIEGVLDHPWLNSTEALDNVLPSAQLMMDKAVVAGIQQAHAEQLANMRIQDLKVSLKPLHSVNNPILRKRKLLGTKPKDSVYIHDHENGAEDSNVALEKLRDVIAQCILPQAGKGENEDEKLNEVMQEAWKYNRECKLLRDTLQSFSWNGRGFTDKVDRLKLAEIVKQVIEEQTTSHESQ
- Test Protocol: KINOMEscan competition binding
- Test Parameters: compound 10.0 µM
Readings of kinase still bound, per cent of control for the listed molecules

>  <Smiles Str>
COc1ccc(N(C(=O)Oc2c(C)cccc2C)c2ccnc(Nc3ccc(N4CCN(C)CC4)cc3)n2)c(OC)c1

>  <kinase still bound, per cent of control>
100%

$$$$
>  <Smiles Str>
CCN1CCN(C(=O)Cc2ccc(Nc3ncc(F)c(Nc4ccc(C(=O)Nc5ccccc5Cl)cc4)n3)cc2)CC1

>  <kinase still bound, per cent of control>
100%

$$$$
>  <Smiles Str>
C=CC(=O)Nc1cc(-n2c(=O)ccc3cnc4ccc(-c5cn[nH]c5)cc4c32)ccc1C

>  <kinase still bound, per cent of control>
78%

$$$$
>  <Smiles Str>
N#CCNC(=O)c1ccc(-c2ccnc(Nc3ccc(N4CCOCC4)cc3)n2)cc1

>  <kinase still bound, per cent of control>
4.4%

$$$$
>  <Smiles Str>
Cc1n[nH]c2ccc(-c3cncc(OC[C@@H](N)Cc4c[nH]c5ccccc45)c3)cc12

>  <kinase still bound, per cent of control>
100%

$$$$
>  <Smiles Str>
COc1cc(N2CCN(C)CC2)ccc1Nc1ncc2c(n1)N(C)c1ccccc1C(=O)N2C

>  <kinase still bound, per cent of control>
100%

$$$$
>  <Smiles Str>
O=C(Nc1cccc(Nc2ncc(Br)c(NCCc3cnc[nH]3)n2)c1)N1CCCC1

>  <kinase still bound, per cent of control>
28%

$$$$
>  <Smiles Str>
COc1cc(C(=O)N2CCC(N3CCN(C)CC3)CC2)ccc1Nc1ncc2c(n1)N(C)c1ccccc1C(=O)N2C

>  <kinase still bound, per cent of control>
97%

$$$$
>  <Smiles Str>
CCN(CC)CCCCNc1ncc2cc(-c3cc(OC)cc(OC)c3)c(NC(=O)NC(C)(C)C)nc2n1

>  <kinase still bound, per cent of control>
100%

$$$$

---

- Target Of Assay: PLK2 (human) (UniProt Q9NYY3)
- Sequence (Q9NYY3 whole entry, looked up): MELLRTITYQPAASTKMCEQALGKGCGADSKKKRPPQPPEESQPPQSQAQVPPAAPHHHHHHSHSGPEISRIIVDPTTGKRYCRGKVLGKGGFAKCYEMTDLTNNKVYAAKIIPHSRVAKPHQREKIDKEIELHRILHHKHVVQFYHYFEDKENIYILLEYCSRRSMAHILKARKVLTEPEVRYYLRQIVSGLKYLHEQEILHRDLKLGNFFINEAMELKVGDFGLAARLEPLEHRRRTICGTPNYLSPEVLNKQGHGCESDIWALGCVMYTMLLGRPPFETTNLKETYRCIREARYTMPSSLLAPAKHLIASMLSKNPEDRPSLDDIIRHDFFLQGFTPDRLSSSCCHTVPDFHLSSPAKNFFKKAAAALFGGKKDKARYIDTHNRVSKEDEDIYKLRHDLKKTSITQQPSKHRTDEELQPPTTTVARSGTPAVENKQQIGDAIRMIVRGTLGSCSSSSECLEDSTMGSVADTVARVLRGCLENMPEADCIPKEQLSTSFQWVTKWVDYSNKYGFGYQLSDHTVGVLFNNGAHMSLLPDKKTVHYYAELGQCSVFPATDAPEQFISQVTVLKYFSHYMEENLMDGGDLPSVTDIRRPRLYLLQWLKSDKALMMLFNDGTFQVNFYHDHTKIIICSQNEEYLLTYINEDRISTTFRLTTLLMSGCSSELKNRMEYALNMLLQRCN
- Test Protocol: KINOMEscan competition binding
- Test Parameters: compound 10.0 µM
Label key: Criterion met means kinase still bound, per cent of control under 40%; Criterion not met means kinase still bound, per cent of control of 40% or more.

>  <Smiles Str>
COc1cc2ncnc(-n3nc(-c4ccccn4)nc3N)c2cc1OC

>  <Classification>
Criterion met

$$$$
>  <Smiles Str>
CCN1CCN(C(=O)Cc2ccc(Nc3ncc(F)c(Nc4ccc(C(=O)Nc5ccccc5Cl)cc4)n3)cc2)CC1

>  <Classification>
Criterion not met

$$$$
>  <Smiles Str>
C[C@@H](Oc1cc(-c2cnn(C3CCNCC3)c2)cnc1N)c1c(Cl)ccc(F)c1Cl

>  <Classification>
Criterion not met

$$$$
>  <Smiles Str>
COc1cc2ncn(-c3cc(OCc4ccccc4C(F)(F)F)c(C(N)=O)s3)c2cc1OC

>  <Classification>
Criterion met

$$$$

---

- Target Of Assay: MAPK11 (human)
- Test Protocol: KINOMEscan competition binding
- Test Parameters: compound 10.0 µM
Measurement Kind: kinase still bound, per cent of control (%)

>  <Smiles Str>
COc1cc(N2CCN(C)CC2)ccc1Nc1ncc2c(n1)N(C)c1ccccc1C(=O)N2C

>  <Units Of Measure>
%

>  <Recorded Measurement>
100

$$$$
>  <Smiles Str>
C=CC(=O)Nc1cc(-n2c(=O)ccc3cnc4ccc(-c5cn[nH]c5)cc4c32)ccc1C

>  <Units Of Measure>
%

>  <Recorded Measurement>
89

$$$$
>  <Smiles Str>
C[C@@H](Oc1cc(-c2cnn(C3CCNCC3)c2)cnc1N)c1c(Cl)ccc(F)c1Cl

>  <Units Of Measure>
%

>  <Recorded Measurement>
100

$$$$
>  <Smiles Str>
CN(C)C/C=C/C(=O)Nc1ccc(C(=O)Nc2cccc(Nc3nccc(-c4cccnc4)n3)c2)cc1

>  <Units Of Measure>
%

>  <Recorded Measurement>
88

$$$$
>  <Smiles Str>
CCN1CCN(C(=O)Cc2ccc(Nc3ncc(F)c(Nc4ccc(C(=O)Nc5ccccc5Cl)cc4)n3)cc2)CC1

>  <Units Of Measure>
%

>  <Recorded Measurement>
81

$$$$
>  <Smiles Str>
O=C1NC(=O)/C(=C/c2ccc3nccc(-c4ccncc4)c3c2)S1

>  <Units Of Measure>
%

>  <Recorded Measurement>
86

$$$$
>  <Smiles Str>
COc1cc2ncnc(-n3nc(-c4ccccn4)nc3N)c2cc1OC

>  <Units Of Measure>
%

>  <Recorded Measurement>
8.2

$$$$
>  <Smiles Str>
O=c1cc(N2CCOCC2)oc2c(-c3cccc4c3sc3ccccc34)cccc12

>  <Units Of Measure>
%

>  <Recorded Measurement>
90

$$$$
>  <Smiles Str>
NC(=O)Nc1cc(-c2cccc(F)c2)sc1C(=O)N[C@@H]1CCCNC1

>  <Units Of Measure>
%

>  <Recorded Measurement>
77

$$$$
>  <Smiles Str>
O=C(Nc1cccc(Nc2ncc(Br)c(NCCc3cnc[nH]3)n2)c1)N1CCCC1

>  <Units Of Measure>
%

>  <Recorded Measurement>
90

$$$$
>  <Smiles Str>
CS(=O)(=O)N1CCN(Cc2cc3nc(-c4cccc5[nH]ncc45)nc(N4CCOCC4)c3s2)CC1

>  <Units Of Measure>
%

>  <Recorded Measurement>
100

$$$$
>  <Smiles Str>
N#CCNC(=O)c1ccc(-c2ccnc(Nc3ccc(N4CCOCC4)cc3)n2)cc1

>  <Units Of Measure>
%

>  <Recorded Measurement>
100

$$$$
>  <Smiles Str>
CNC(=O)c1ccc(Nc2cc(Nc3ccccc3S(=O)(=O)C(C)C)c3cc[nH]c3n2)nc1

>  <Units Of Measure>
%

>  <Recorded Measurement>
100

$$$$
>  <Smiles Str>
COc1cc2ncn(-c3cc(OCc4ccccc4C(F)(F)F)c(C(N)=O)s3)c2cc1OC

>  <Units Of Measure>
%

>  <Recorded Measurement>
88

$$$$
>  <Smiles Str>
COCC(=O)NC/C=C/c1ccc2ncnc(Nc3ccc(Oc4ccc(C)nc4)c(C)c3)c2c1

>  <Units Of Measure>
%

>  <Recorded Measurement>
100

$$$$
>  <Smiles Str>
CNC(=O)c1cc(Oc2ccc(NC(=O)Nc3ccc(Cl)c(C(F)(F)F)c3)cc2)ccn1

>  <Units Of Measure>
%

>  <Recorded Measurement>
0.2

$$$$
>  <Smiles Str>
Cc1n[nH]c2ccc(-c3cncc(OC[C@@H](N)Cc4c[nH]c5ccccc45)c3)cc12

>  <Units Of Measure>
%

>  <Recorded Measurement>
100

$$$$
>  <Smiles Str>
CCN(CC)CCCCNc1ncc2c(n1)N(C)C(=O)N(c1c(Cl)c(OC)cc(OC)c1Cl)C2

>  <Units Of Measure>
%

>  <Recorded Measurement>
100

$$$$
>  <Smiles Str>
CCN(CC)CCCCNc1ncc2cc(-c3cc(OC)cc(OC)c3)c(NC(=O)NC(C)(C)C)nc2n1

>  <Units Of Measure>
%

>  <Recorded Measurement>
100

$$$$

---

- Target Of Assay: EPHA2 (human)
- Test Protocol: KINOMEscan competition binding
- Test Parameters: compound 10.0 µM
Form field: kinase still bound, per cent of control (one value per entry).
Measurement Kind: kinase still bound, per cent of control

>  <Smiles Str>
C=CC(=O)Nc1cc(-n2c(=O)ccc3cnc4ccc(-c5cn[nH]c5)cc4c32)ccc1C

>  <Measurement Kind>
kinase still bound, per cent of control

>  <Recorded Measurement>
85%

$$$$
>  <Smiles Str>
C[C@@H](Oc1cc(-c2cnn(C3CCNCC3)c2)cnc1N)c1c(Cl)ccc(F)c1Cl

>  <Measurement Kind>
kinase still bound, per cent of control

>  <Recorded Measurement>
1.5%

$$$$
>  <Smiles Str>
N#CCNC(=O)c1ccc(-c2ccnc(Nc3ccc(N4CCOCC4)cc3)n2)cc1

>  <Measurement Kind>
kinase still bound, per cent of control

>  <Recorded Measurement>
100%

$$$$
>  <Smiles Str>
O=C1NC(=O)/C(=C/c2ccc3nccc(-c4ccncc4)c3c2)S1

>  <Measurement Kind>
kinase still bound, per cent of control

>  <Recorded Measurement>
95%

$$$$
>  <Smiles Str>
CCN(CC)CCCCNc1ncc2c(n1)N(C)C(=O)N(c1c(Cl)c(OC)cc(OC)c1Cl)C2

>  <Measurement Kind>
kinase still bound, per cent of control

>  <Recorded Measurement>
100%

$$$$

---

- Target Of Assay: MYLK (human) (UniProt Q15746)
- Sequence (Q15746 whole entry, looked up): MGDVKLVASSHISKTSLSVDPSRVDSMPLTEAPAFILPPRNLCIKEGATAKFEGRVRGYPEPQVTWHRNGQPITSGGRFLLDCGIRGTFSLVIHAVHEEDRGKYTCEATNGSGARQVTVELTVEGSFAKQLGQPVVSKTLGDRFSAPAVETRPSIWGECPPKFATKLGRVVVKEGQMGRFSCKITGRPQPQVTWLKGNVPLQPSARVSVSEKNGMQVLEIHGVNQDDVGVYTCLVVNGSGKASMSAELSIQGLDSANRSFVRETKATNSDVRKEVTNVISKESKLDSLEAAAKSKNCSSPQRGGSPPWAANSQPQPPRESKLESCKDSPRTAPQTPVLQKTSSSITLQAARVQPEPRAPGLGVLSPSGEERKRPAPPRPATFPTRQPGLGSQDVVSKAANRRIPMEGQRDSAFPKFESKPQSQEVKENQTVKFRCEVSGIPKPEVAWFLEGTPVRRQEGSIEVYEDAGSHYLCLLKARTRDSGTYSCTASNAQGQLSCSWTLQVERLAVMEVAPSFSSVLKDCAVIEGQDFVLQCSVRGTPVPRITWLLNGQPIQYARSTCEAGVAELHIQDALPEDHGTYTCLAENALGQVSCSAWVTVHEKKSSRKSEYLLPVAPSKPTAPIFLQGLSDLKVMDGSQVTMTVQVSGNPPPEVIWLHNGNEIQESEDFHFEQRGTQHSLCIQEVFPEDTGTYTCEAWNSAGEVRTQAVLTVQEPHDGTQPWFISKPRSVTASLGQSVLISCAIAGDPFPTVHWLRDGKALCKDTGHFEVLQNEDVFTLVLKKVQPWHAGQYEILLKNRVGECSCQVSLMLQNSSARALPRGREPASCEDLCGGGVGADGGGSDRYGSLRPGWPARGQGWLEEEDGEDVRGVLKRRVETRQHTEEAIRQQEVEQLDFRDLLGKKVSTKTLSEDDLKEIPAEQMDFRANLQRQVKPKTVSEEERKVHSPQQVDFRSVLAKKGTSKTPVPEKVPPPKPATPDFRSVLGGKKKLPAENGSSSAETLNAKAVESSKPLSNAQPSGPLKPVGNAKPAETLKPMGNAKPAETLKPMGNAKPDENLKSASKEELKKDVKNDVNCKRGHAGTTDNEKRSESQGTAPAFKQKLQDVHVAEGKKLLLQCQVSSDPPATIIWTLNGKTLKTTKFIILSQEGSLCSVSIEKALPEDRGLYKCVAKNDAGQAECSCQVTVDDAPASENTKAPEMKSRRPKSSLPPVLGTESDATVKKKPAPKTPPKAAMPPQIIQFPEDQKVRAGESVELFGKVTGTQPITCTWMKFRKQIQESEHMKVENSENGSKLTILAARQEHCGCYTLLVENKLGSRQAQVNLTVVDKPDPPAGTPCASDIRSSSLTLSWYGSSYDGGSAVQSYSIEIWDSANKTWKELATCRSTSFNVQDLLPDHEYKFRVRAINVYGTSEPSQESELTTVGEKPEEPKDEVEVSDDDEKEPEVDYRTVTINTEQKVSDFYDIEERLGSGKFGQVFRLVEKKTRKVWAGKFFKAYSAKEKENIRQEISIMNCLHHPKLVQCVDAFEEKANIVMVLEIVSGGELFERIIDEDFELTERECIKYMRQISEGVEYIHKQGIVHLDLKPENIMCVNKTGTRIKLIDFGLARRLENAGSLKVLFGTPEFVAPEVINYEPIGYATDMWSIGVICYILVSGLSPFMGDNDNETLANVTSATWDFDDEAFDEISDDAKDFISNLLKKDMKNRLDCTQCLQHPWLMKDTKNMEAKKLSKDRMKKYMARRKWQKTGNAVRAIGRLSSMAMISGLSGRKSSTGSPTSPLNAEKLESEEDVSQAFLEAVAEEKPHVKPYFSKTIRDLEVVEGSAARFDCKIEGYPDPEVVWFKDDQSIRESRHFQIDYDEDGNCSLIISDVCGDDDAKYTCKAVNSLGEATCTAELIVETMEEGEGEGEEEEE
- Test Protocol: KINOMEscan competition binding
- Test Parameters: compound 10.0 µM
// thresholds for kinase still bound, per cent of control classes: I (below 30%), II (30% to below 90%), III (90% or more)

>  <Smiles Str>
C=CC(=O)Nc1ccc(CN(C(=O)Nc2c(Cl)c(OC)cc(OC)c2Cl)c2cc(Nc3ccc(N4CCN(C)CC4)cc3)ncn2)cc1

>  <Classification>
III

$$$$
>  <Smiles Str>
CCN1CCN(C(=O)Cc2ccc(Nc3ncc(F)c(Nc4ccc(C(=O)Nc5ccccc5Cl)cc4)n3)cc2)CC1

>  <Classification>
II

$$$$
>  <Smiles Str>
COc1cc2ncn(-c3cc(OCc4ccccc4C(F)(F)F)c(C(N)=O)s3)c2cc1OC

>  <Classification>
II

$$$$
>  <Smiles Str>
NC(=O)Nc1cc(-c2cccc(F)c2)sc1C(=O)N[C@@H]1CCCNC1

>  <Classification>
I

$$$$
>  <Smiles Str>
COc1cc(C(=O)N2CCC(N3CCN(C)CC3)CC2)ccc1Nc1ncc2c(n1)N(C)c1ccccc1C(=O)N2C

>  <Classification>
I

$$$$
>  <Smiles Str>
C=CC(=O)Nc1cc(-n2c(=O)ccc3cnc4ccc(-c5cn[nH]c5)cc4c32)ccc1C

>  <Classification>
II

$$$$
>  <Smiles Str>
Cc1n[nH]c2ccc(-c3cncc(OC[C@@H](N)Cc4c[nH]c5ccccc45)c3)cc12

>  <Classification>
I

$$$$
>  <Smiles Str>
CNC(=O)c1cc(Oc2ccc(NC(=O)Nc3ccc(Cl)c(C(F)(F)F)c3)cc2)ccn1

>  <Classification>
II

$$$$
>  <Smiles Str>
N#CCNC(=O)c1ccc(-c2ccnc(Nc3ccc(N4CCOCC4)cc3)n2)cc1

>  <Classification>
III

$$$$
>  <Smiles Str>
CN(C)C/C=C/C(=O)Nc1ccc(C(=O)Nc2cccc(Nc3nccc(-c4cccnc4)n3)c2)cc1

>  <Classification>
II

$$$$
>  <Smiles Str>
COCC(=O)NC/C=C/c1ccc2ncnc(Nc3ccc(Oc4ccc(C)nc4)c(C)c3)c2c1

>  <Classification>
II

$$$$
>  <Smiles Str>
CCN(CC)CCCCNc1ncc2cc(-c3cc(OC)cc(OC)c3)c(NC(=O)NC(C)(C)C)nc2n1

>  <Classification>
III

$$$$
>  <Smiles Str>
O=C1NC(=O)/C(=C/c2ccc3nccc(-c4ccncc4)c3c2)S1

>  <Classification>
I

$$$$
>  <Smiles Str>
COc1cc2ncnc(-n3nc(-c4ccccn4)nc3N)c2cc1OC

>  <Classification>
I

$$$$
>  <Smiles Str>
CNC(=O)c1ccc(Nc2cc(Nc3ccccc3S(=O)(=O)C(C)C)c3cc[nH]c3n2)nc1

>  <Classification>
III

$$$$
>  <Smiles Str>
COc1ccc(N(C(=O)Oc2c(C)cccc2C)c2ccnc(Nc3ccc(N4CCN(C)CC4)cc3)n2)c(OC)c1

>  <Classification>
III

$$$$
>  <Smiles Str>
O=C(Nc1cccc(Nc2ncc(Br)c(NCCc3cnc[nH]3)n2)c1)N1CCCC1

>  <Classification>
II

$$$$

This collection of values is drawn from the kinase profiling compilation of Christmann-Franck et al. (2016).
